Target: KRAS G12V Ba/F3 (Homo sapiens, UniProt P01116, G12V, cells depend on it)
Sequence (P01116 whole entry G12V): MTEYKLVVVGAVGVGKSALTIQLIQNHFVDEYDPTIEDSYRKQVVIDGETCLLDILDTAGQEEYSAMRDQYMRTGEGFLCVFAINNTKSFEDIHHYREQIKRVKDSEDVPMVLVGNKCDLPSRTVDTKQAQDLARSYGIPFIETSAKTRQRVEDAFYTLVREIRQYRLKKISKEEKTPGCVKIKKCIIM
Experiment: Ba/F3 proliferation assay, KRAS G12V
Format: cell-based
Conditions: 72 h, AlamarBlue, read-out: KRAS G12V Ba/F3 IC50
Entries and their measured GI50 follow.

smiles_text | measured_target | GI50 / µM
C[C@H](Oc1cc(Sc2ncccn2)nc(-c2onc3c2CCC[C@@]32CCCc3sc(N)c(C#N)c32)n1)[C@@H]1CCCN1C | KRAS G12V Ba/F3 (Homo sapiens, UniProt P01116, G12V, cells depend on it) | 0.031
C[C@H]1CN(C)CCCN1c1cc(O[C@@H]2CNC2(C)C)nc(-c2noc3c2CCC[C@@]32CCCc3sc(N)c(C#N)c32)n1 | KRAS G12V Ba/F3 (Homo sapiens, UniProt P01116, G12V, cells depend on it) | 2.04
C[C@H](Oc1cc(Nc2ncccn2)nc(-c2noc3c2CCC[C@@]32CCCc3sc(N)c(C#N)c32)n1)[C@@H]1CCCN1C | KRAS G12V Ba/F3 (Homo sapiens, UniProt P01116, G12V, cells depend on it) | 0.01
C[C@H](Oc1cc(Nc2nccs2)nc(-c2noc3c2CCC[C@@]32CCCc3sc(N)c(C#N)c32)n1)[C@@H]1CCCN1C | KRAS G12V Ba/F3 (Homo sapiens, UniProt P01116, G12V, cells depend on it) | 0.011

* * *

Biological target: KRAS (G12D)::SOS1 (Homo sapiens, UniProt P01116, G12D)
Construct: KRAS (G12D) 1-169, N-terminal 6His-tag, C-terminal avi-tag; 6His-tag (N); Viva Biotech Ltd (SOS1)
Sequence (P01116 1-169 isoform P01116-2 G12D): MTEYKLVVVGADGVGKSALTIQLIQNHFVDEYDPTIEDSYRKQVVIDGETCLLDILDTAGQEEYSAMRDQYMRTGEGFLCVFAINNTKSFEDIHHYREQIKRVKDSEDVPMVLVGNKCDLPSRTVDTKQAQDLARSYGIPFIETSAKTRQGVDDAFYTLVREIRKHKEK
Experiment: KRAS::SOS1 AlphaScreen binding assay, KRAS G12D
Settings: read-out: KRASG12D IC50

smiles_text | IC50 [nM]
C[C@H](Oc1cc(O[C@@H]2CNC[C@@H]2F)nc(-c2noc3c2CCC[C@@]32CCCc3sc(N)c(C#N)c32)n1)[C@@H]1CCCN1C | 1
C[C@H](Oc1cc(OCC2(N(C)C)COC2)nc(-c2noc3c2CCC[C@@]32CCCc3sc(N)c(C#N)c32)n1)[C@@H]1CCCN1C | 1
C[C@H](Oc1cc(O[C@H]2CCOC2)nc(-c2noc3c2CCC[C@@]32CCCc3sc(N)c(C#N)c32)n1)[C@@H]1CCCN1C | 2
C[C@H](Oc1cc(Nc2ccccn2)nc(-c2onc3c2CCC[C@@]32CCCc3sc(N)c(C#N)c32)n1)[C@@H]1CCCN1C | 4
C[C@H](Oc1cc(O[C@@H]2CNC2(C)C)nc(-c2noc3c2CCC[C@@]32CCCc3sc(N)c(C#N)c32)n1)[C@@H]1C[C@@H](F)CN1C | 1
C[C@H](Oc1cc(Oc2cncnc2)nc(-c2noc3c2CCC[C@@]32CCCc3sc(N)c(C#N)c32)n1)[C@@H]1CCCN1C | 1
C[C@H](Oc1cc(Oc2cncnc2)nc(-c2onc3c2CCC[C@@]32CCCc3sc(N)c(C#N)c32)n1)[C@@H]1CCCN1C | 1
C[C@H](Oc1cc(O[C@@H]2CNC2(C)C)nc(-c2noc3c2CCC[C@@]32CCCc3sc(N)c(C#N)c32)n1)[C@@H]1CCCN1C | 1
C[C@H](Oc1cc(Oc2nccs2)nc(-c2onc3c2CCC[C@@]32CCCc3sc(N)c(C#N)c32)n1)[C@@H]1CCCN1C | 2
COCCOc1cc(O[C@@H](C)[C@@H]2CCCN2C)nc(-c2noc3c2CCC[C@@]32CCCc3sc(N)c(C#N)c32)n1 | 1
C[C@H](Oc1cc(OCCO)nc(-c2noc3c2CCC[C@@]32CCCc3sc(N)c(C#N)c32)n1)[C@@H]1CCCN1C | 1
COc1c(OCC2(N(C)C)COC2)nc(-c2noc3c2CCC[C@@]32CCCc3sc(N)c(C#N)c32)nc1O[C@@H](C)[C@@H]1CCCN1C | 1
C[C@H](Oc1cc(NCC2COC2)nc(-c2noc3c2CCC[C@@]32CCCc3sc(N)c(C#N)c32)n1)[C@@H]1CCCN1C | 1

* * *

Target: KRAS (WT)::SOS1 (Homo sapiens, UniProt P01116, C118S)
Construct: KRAS (WT) 1-169, N-terminal 6His-tag for purification, cleaved off; 6His-tag (N, cleaved yes); TEV cleavage site
Sequence (P01116 1-169 isoform P01116-2 C118S): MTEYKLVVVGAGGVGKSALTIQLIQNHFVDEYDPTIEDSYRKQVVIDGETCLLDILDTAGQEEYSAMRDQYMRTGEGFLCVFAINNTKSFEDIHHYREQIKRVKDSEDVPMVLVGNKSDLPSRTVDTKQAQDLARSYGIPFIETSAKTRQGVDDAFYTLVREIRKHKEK
Experiment: KRAS::SOS1 AlphaScreen binding assay, KRAS WT
Method: This assay can be used to examine the potency with which compounds according to the invention binding to (mutated) KRAS inhibit the protein-protein interaction between SOS1 and (mutated) KRAS e.g., KRAS WT, KRAS G12C, KRAS G12D, KRAS G12V, KRAS G13D. […] Plates are kept at room temperature in a darkened incubator. After an additional 60 minutes incubation time the signal is measured in a PerkinElmer Envision HTS Multilabel Reader using the AlphaScreen specs from PerkinElmer. […]
pIC50: −log10 of the molar value.
Entries and their measured pIC50 follow.
observed_property: pIC50

compound | reported_result
C[C@H](Oc1cc(Oc2cccnc2)nc(-c2onc3c2CCC[C@@]32CCCc3sc(N)c(C#N)c32)n1)[C@@H]1CCCN1C [Example I-2] | 8.40
C[C@H](Oc1cc(OCC2(N(C)C)COC2)nc(-c2noc3c2CCC[C@@]32CCCc3sc(N)c(C#N)c32)n1)[C@@H]1CCCN1C [II-22] | 8.70
C[C@H](Oc1cc(Oc2cncnc2)nc(-c2noc3c2CCC[C@@]32CCCc3sc(N)c(C#N)c32)n1)[C@@H]1CCCN1C [II-1] | 8.52
C[C@H](Oc1cc(Nc2ncco2)nc(-c2noc3c2CCC[C@@]32CCCc3sc(N)c(C#N)c32)n1)[C@@H]1CCCN1C [II-13] | 8.15
C[C@H]1CN(C)CCCN1c1cc(O[C@@H]2CNC2(C)C)nc(-c2noc3c2CCC[C@@]32CCCc3sc(N)c(C#N)c32)n1 [II-28] | 8.00
C[C@H](Oc1cc(Nc2cnccn2)nc(-c2noc3c2CCC[C@@]32CCCc3sc(N)c(C#N)c32)n1)[C@@H]1CCCN1C [II-14] | 8.00
C[C@H](Oc1cc(O[C@@H]2CNC[C@@H]2F)nc(-c2noc3c2CCC[C@@]32CCCc3sc(N)c(C#N)c32)n1)[C@@H]1CCCN1C [II-29] | 8.40
CO[C@@H]1C[C@@H]([C@H](C)Oc2cc(O[C@@H]3CNC3(C)C)nc(-c3noc4c3CCC[C@@]43CCCc4sc(N)c(C#N)c43)n2)N(C)C1 [II-30] | 8.70
C[C@H](Oc1cc(Oc2nccs2)nc(-c2onc3c2CCC[C@@]32CCCc3sc(N)c(C#N)c32)n1)[C@@H]1CCCN1C [Example I-1] | 8.40
C[C@H](Oc1cc(O[C@@H]2CNC2(C)C)nc(-c2noc3c2CCC[C@@]32CCCc3sc(N)c(C#N)c32)n1)[C@@H]1C[C@@H](F)CN1C [II-31] | 8.70
C[C@H](Oc1cc(Nc2ncccn2)nc(-c2noc3c2CCC[C@@]32CCCc3sc(N)c(C#N)c32)n1)[C@@H]1CCCN1C [II-17] | 8.10
COc1c(OCC2(N(C)C)COC2)nc(-c2noc3c2CCC[C@@]32CCCc3sc(N)c(C#N)c32)nc1O[C@@H](C)[C@@H]1CCCN1C [II-25] | 8.40
C[C@H](Oc1cc(O[C@@H]2CNC2(C)C)nc(-c2noc3c2CCC[C@@]32CCCc3sc(N)c(C#N)c32)n1)[C@@H]1CCCN1C [II-9] | 8.70
C[C@H](Oc1cc(Oc2cncnc2)nc(-c2onc3c2CCC[C@@]32CCCc3sc(N)c(C#N)c32)n1)[C@@H]1CCCN1C [Example I-3] | 8.70

* * *

Entries and their measured log10(GI50) follow.
Target: KRAS G12V Ba/F3 (Homo sapiens, UniProt P01116, G12V, cells depend on it)
Test: Ba/F3 proliferation assay, KRAS G12V
Type: cell-based
Conditions: 72 h, AlamarBlue, read-out: KRAS G12V Ba/F3 IC50
observed_property: log10(GI50) (log10 of the value in nM)

smiles_text | log10(GI50)
C[C@H](Oc1cc(Oc2nccs2)nc(-c2onc3c2CCC[C@@]32CCCc3sc(N)c(C#N)c32)n1)[C@@H]1CCCN1C | 0.48
C[C@H](Oc1cc(Oc2nccs2)nc(-c2noc3c2CCC[C@@]32CCCc3sc(N)c(C#N)c32)n1)[C@@H]1CCCN1C | 0.60
C[C@H](Oc1cc(N[C@H]2CCOC2)nc(-c2onc3c2CCC[C@@]32CCCc3sc(N)c(C#N)c32)n1)[C@@H]1CCCN1C | 1.66
C[C@H](Oc1cc(Oc2cncnc2)nc(-c2onc3c2CCC[C@@]32CCCc3sc(N)c(C#N)c32)n1)[C@@H]1CCCN1C | 0.30
C[C@H](Oc1cc(Nc2ccccn2)nc(-c2onc3c2CCC[C@@]32CCCc3sc(N)c(C#N)c32)n1)[C@@H]1CCCN1C | 1.15
C[C@H](Oc1cc(Nc2ncco2)nc(-c2noc3c2CCC[C@@]32CCCc3sc(N)c(C#N)c32)n1)[C@@H]1CCCN1C | 1.00
